Recorded Rat In vivo CL as % Hepatic Blood Flow by entry
Assay: Rat PK (i.v./p.o.)
Type: in vivo
Respond with the bare value in %.

A selection of reference data follows.
mol=Cc1nc2nc(OCCO)nn2c(O)c1Cc1ccc(C(C)(C)C)cc1 data_value=7
mol=COCc1nc2nc(O)c(Cc3ccc(C(C)(C)C)cc3)c(COC)n2n1 data_value=9
mol=COCc1nc2nc(C)c(Cc3ccc(C(C)(C)C)cc3)c(O)n2n1 data_value=15

Dear colleague, I am looking for the recorded Rat In vivo CL as % Hepatic Blood Flow of the following molecule: CCc1nc2ncnn2c(O)c1Cc1ccc(C(C)(C)C#N)cc1
3

Field entry: Cc1nc2ncnn2c(O)c1Cc1ccc(C(C)(C)C)cc1
44

Field entry: COCc1nc2ncnn2c(O)c1Cc1ccc(C(C)(C)C)cc1
10

Field entry: CC(C)(C)c1ccc(Cc2c(C3CCC3)nc3ncnn3c2O)cc1
32

* * *

Recorded Sol. pH 4 by entry
Experiment: pH-solubility (high-throughput, buffers)
Format: physicochemical
Details: 1000 ug compound in 1 mL pH 4 buffer
Respond with the bare value in ug/mL.

A selection of reference data follows.
compound=CC(C)c1nc2ncnn2c(O)c1Cc1ccc(C(C)(C)C)cc1 units_text=ug/mL data_value=2
compound=COCc1nc2nc(O)c(Cc3ccc(C(C)(C)C)cc3)c(COC)n2n1 units_text=ug/mL data_value=132
compound=Cc1nc2nc(C(F)(F)F)nn2c(O)c1Cc1ccc(C(C)(C)C)cc1 units_text=ug/mL data_value=4
compound=Cc1nc2cc(C(F)(F)F)nn2c(O)c1Cc1ccc(C(C)(C)C)cc1 units_text=ug/mL data_value=0
compound=CCc1nc2nc(C(=O)N(C)C)nn2c(O)c1Cc1ccc(C(C)(C)C)cc1 units_text=ug/mL data_value=0

Dear colleague, I am looking for the recorded Sol. pH 4 of the following compound: Cc1nc2nc(C(F)(F)F)nn2c(O)c1Cc1ccc(N2CC(C)OC(C)C2)c(F)c1 (stereo not drawn)
79

Field entry: Cc1nc2ncnn2c(O)c1Cc1ccc(C(C)(C)C)cc1
13

Field entry: CCc1nc2n[nH]c(=O)n2c(O)c1Cc1ccc(C(C)(C)C)cc1
79

Field entry: CC(C)(C)c1ccc(Cc2c(C3CCC3)nc3ncnn3c2O)cc1
4

Field entry: CCOc1nc2nc(CC)c(Cc3ccc(C(C)(C)C)cc3)c(O)n2n1
79

Field entry: CCc1nc2ncnn2c(O)c1Cc1ccc(C(C)(C)COC)cc1
62

Field entry: CCc1nc2nc(N)nn2c(O)c1Cc1ccc(C(C)(C)C)cc1
2

Field entry: COCc1nc2ncnn2c(O)c1Cc1ccc(C(C)(C)C)cc1
3

* * *

Recorded IC50 by entry
Target: CCR9 receptor (Homo sapiens, UniProt P51686)
Sequence (P51686 1-369): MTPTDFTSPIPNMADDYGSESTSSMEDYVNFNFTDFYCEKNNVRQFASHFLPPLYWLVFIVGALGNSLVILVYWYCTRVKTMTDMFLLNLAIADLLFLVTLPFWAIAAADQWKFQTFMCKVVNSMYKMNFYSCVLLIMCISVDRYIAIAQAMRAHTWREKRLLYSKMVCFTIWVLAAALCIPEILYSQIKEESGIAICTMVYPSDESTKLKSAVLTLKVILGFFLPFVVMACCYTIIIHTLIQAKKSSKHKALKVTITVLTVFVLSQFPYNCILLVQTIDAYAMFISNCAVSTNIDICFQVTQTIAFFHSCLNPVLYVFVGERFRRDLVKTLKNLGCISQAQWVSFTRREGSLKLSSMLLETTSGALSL
Experiment: Calcium mobilization (Ca FLIPR) assay, antagonist mode vs TECK
Details: cells expressing CCR9; TECK at EC80 0.01 uM; read-out: CCR9 Ca2+ IC50
Respond with the bare value in µM.

molecule=CCOc1nc2nc(CC)c(Cc3ccc(C(C)(C)C)cc3)c(O)n2n1 measured_quantity=IC50 units_text=µM data_value=0.008
molecule=CCc1nc2nc(C(=O)N(C)C)nn2c(O)c1Cc1ccc(C(C)(C)C)cc1 measured_quantity=IC50 units_text=µM data_value=0.012
molecule=CC(C)(C)c1ccc(Cc2c(C3CCCC3)nc3ncnn3c2O)cc1 measured_quantity=IC50 units_text=µM data_value=0.015
molecule=CCc1nc2nc(N)nn2c(O)c1Cc1ccc(C(C)(C)C)cc1 measured_quantity=IC50 units_text=µM data_value=0.002

Dear colleague, I am looking for the recorded IC50 of the following molecule: COCc1nc2ncnn2c(O)c1Cc1ccc(C(C)(C)C)cc1
0.008

Field entry: Cc1nc2nc(C)c(Cc3ccc(C(C)(C)C)cc3)c(O)n2n1
0.22

Field entry: CCc1nc2ncnn2c(O)c1Cc1ccc(C(C)(C)COC)cc1
0.013

Field entry: CCc1nc2n[nH]c(=O)n2c(O)c1Cc1ccc(C(C)(C)C)cc1
0.028

Field entry: CCCc1nc2ncnn2c(O)c1Cc1ccc(C(C)(C)C)cc1
0.004

* * *

Recorded Sol. pH 9 by entry
Assay: pH-solubility (high-throughput, buffers)
Format: physicochemical
Details: 1000 ug compound in 1 mL pH 9 buffer
Respond with the bare value in ug/mL.

A selection of reference data follows.
mol=COCc1nc2nc(O)c(Cc3ccc(C(C)(C)C)cc3)c(COC)n2n1 units_text=ug/mL data_value=989
mol=CCOc1nc2nc(CC)c(Cc3ccc(C(C)(C)C)cc3)c(O)n2n1 units_text=ug/mL data_value=914
mol=Cc1nc2cc(C(F)(F)F)nn2c(O)c1Cc1ccc(C(C)(C)C)cc1 units_text=ug/mL data_value=5
mol=CCc1nc2ncnn2c(O)c1Cc1ccc(C(C)(C)C#N)cc1 units_text=ug/mL data_value=982
mol=CCc1nc2nc(C(=O)N(C)C)nn2c(O)c1Cc1ccc(C(C)(C)C)cc1 units_text=ug/mL data_value=5
mol=CC(C)c1nc2ncnn2c(O)c1Cc1ccc(C(C)(C)C)cc1 units_text=ug/mL data_value=358

Shifting focus to the compound that follows.
Dear colleague, I am looking for the recorded Sol. pH 9 of the following compound: CCc1nc2nc(N)nn2c(O)c1Cc1ccc(C(C)(C)C)cc1
358

* * *

Test: pH-solubility (high-throughput, buffers)
Format: physicochemical
Conditions: 1000 ug compound in 1 mL pH 7 buffer
MEASURED QUANTITY: Sol. pH 7 (ug/mL)
Respond with the bare value in ug/mL.

A selection of reference data follows.
mol=CCc1nc2ncnn2c(O)c1Cc1ccc(C(C)(C)C#N)cc1 data_value=994
mol=Cc1nc2cc(C(F)(F)F)nn2c(O)c1Cc1ccc(C(C)(C)C)cc1 data_value=0
mol=CC(C)(C)c1ccc(Cc2c(C3CCC3)nc3ncnn3c2O)cc1 data_value=58

Shifting focus to the compound that follows.
Dear colleague, I am looking for the recorded Sol. pH 7 of the following compound: CCc1nc2n[nH]c(=O)n2c(O)c1Cc1ccc(C(C)(C)C)cc1
117

* * *

Experiment: Rat microsome protein binding (equilibrium dialysis)
Type: in vitro ADME
Settings: rat liver microsomes, 1 mg/mL rat hepatic microsomes, read-out: Rat Microsomal Binding Fu
Experimental: Plasma and Microsome Protein Binding: Protein binding was measured via high throughput equilibrium dialysis with the HTDialysis device fitted with a 12,000 to 14,000 Da molecular weight cutoff membrane. […] Following protein precipitation and centrifugation, the resultant matrix matched supernatants were analyzed by LC-MS to compare the plasma or microsome dialysate test article signal to the buffer signal. Test article stability was monitored during the course of the assay.
MEASURED QUANTITY: fraction unbound at 6 h
Output spec: single numeric token, no unit.

A selection of reference data follows.
compound="CC(C)(C)c1ccc(Cc2c(C3CCC3)nc3ncnn3c2O)cc1 [Compound 27]" measured_quantity="fraction unbound at 6 h" data_value=0.255
compound="Cc1nc2ncnn2c(O)c1Cc1ccc(C(C)(C)C)cc1 [Compound 6]" measured_quantity="fraction unbound at 6 h" data_value=0.703
compound="COCc1nc2ncnn2c(O)c1Cc1ccc(C(C)(C)C)cc1 [Compound 26]" measured_quantity="fraction unbound at 6 h" data_value=0.85

Dear colleague, I am looking for the recorded fraction unbound at 6 h of the following compound: CCc1nc2ncnn2c(O)c1Cc1ccc(C(C)(C)C#N)cc1 [Compound 37]
0.85

* * *

Assay: Human liver microsome clearance
Type: in vitro ADME
Conditions: second value of RLM/HLM cell
Criterion: HLM CL (human liver microsome hepatic clearance) strictly less than 5 mL/min/kg. Met: T. Not met: F.

For orientation, consider the following solved cases.
mol=COCc1nc2ncnn2c(O)c1Cc1ccc(C(C)(C)C)cc1 label=F
mol=CCc1nc2ncnn2c(O)c1Cc1ccc(C(C)(C)C#N)cc1 label=T
mol=CC(C)(C)c1ccc(Cc2c(C3CCC3)nc3ncnn3c2O)cc1 label=F

Now consider the entry below.
Hello, I'm reviewing records and need to know if HLM CL (human liver microsome hepatic clearance) of Cc1nc2ncnn2c(O)c1Cc1ccc(C(C)(C)C)cc1 is below 5 mL/min/kg. Could you check?
F
